These measurements were taken from PubChem BioAssay (NCI).

tested on: SF-539 CNS; test: NCI tumour cell line growth inhibition, 48 h
REPORTED_METRIC: TGI

Can you look up the measured TGI of N#C/C(=C1\SC(N=Nc2ccc(Cl)cc2)C(=O)N1c1ccccc1)c1nc2ccccc2[nH]1 (stereo unspecified) for me?
> 100 µM

Could you tell me which TGI is on file for C=CCNC(=O)N(CCC)CCCC(NC(C)=O)C(=O)NCc1ccccc1 (stereo unspecified) ?
> 100 µM

Entry COc1ccc(C2=C(N3CCc4ccccc43)C(=O)NC2=O)cc1 : reported TGI = ?
> 25 µM

Consider the compound Cc1ccccc1/C=C/C(=O)c1ccccc1 and give its measured TGI.
28.7 µM

* * *

test system: CCRF-CEM leukemia; assay: NCI tumour cell line growth inhibition, 48 h
REPORTED_METRIC: TGI

Worked examples, 3 molecules total:
>  <MOLECULE>
O=C(/C=C/c1cccc(O)c1)c1cccc(-n2cc(-c3ccc4ccccc4c3)[nH]c2=O)c1

>  <DATA_VALUE>
> 100 µM

$$$$
>  <MOLECULE>
O=S1(=O)c2cnccc2NC(=NCc2ccccc2)N1c1ccccc1

>  <DATA_VALUE>
> 100 µM

$$$$
>  <MOLECULE>
CC#CC(O)(C(=O)OC1CC(C)N(C)C(C)(C)C1)C1CCCC1 (stereo not given)

>  <DATA_VALUE>
> 100 µM

$$$$

Item under review: S=C1NC2=C(CSC/C2=C\c2ccccc2)C(c2ccccc2)N1 (stereo not given) . Reported TGI?
> 100 µM

Would you kindly share the measured TGI for O=[N+]([O-])c1ccc(-c2cc3c(Nc4ccc(Cl)c(C(F)(F)F)c4)ncnc3s2)cc1 ?
> 100 µM

What TGI value was documented for this molecule, COc1ccc(/C=N/n2c(C)nc3c(sc(=S)n3-c3ccccc3)c2=O)cc1 ?
54.2 µM

I am curious: what TGI value has been reported for CC1c2ccccc2N=C2SC(=S)N3CCN=C3N21 (stereo not given) ?
> 100 µM

Using the record for CCn1c(-c2nonc2N)nc2ccncc21 , report its TGI.
> 25 µM

Field request: TGI | item: Clc1nncc2sc(-c3ccccc3)nc12
> 94.4 µM

* * *

tested on: NCI-H460 lung
Log the outcome using a class from active, inactive

>  <COMPOUND>
c1cnn2ncc(-c3ccnc(Nc4ccc5c(c4)OCCO5)n3)c2c1

>  <ASSIGNED_CATEGORY>
active

$$$$
>  <COMPOUND>
Fc1ccc2nc(-c3cc(-c4ccc5c(c4)OCO5)n[nH]3)[nH]c2c1

>  <ASSIGNED_CATEGORY>
inactive

$$$$
>  <COMPOUND>
O=C1c2ccccc2-c2c1c1ccccc1c(=O)n2CCNCCn1c2c(c3ccccc3c1=O)C(=O)c1ccccc1-2

>  <ASSIGNED_CATEGORY>
inactive

$$$$
>  <COMPOUND>
O=C(/C=C/c1cccc(O)c1)c1cccc(-n2cc(-c3ccc4ccccc4c3)[nH]c2=O)c1

>  <ASSIGNED_CATEGORY>
inactive

$$$$
>  <COMPOUND>
C/C1=C\CC[C@@](C)(O)[C@@H]2C[C@H](CC/C(C)=C/CC1)C1(CC1)C(=O)O2

>  <ASSIGNED_CATEGORY>
inactive

$$$$

Just curious, what result did O=C(c1cccs1)C1NO[N+]([O-])=C1c1cccs1 (stereo unspecified) get here?
inactive

In this assay, the call recorded for O=C(NCCN1CCNCC1)c1ccc(Nc2nc3ccccc3c3occc23)cc1 was what?
inactive

Lab log entry: CC(C)Oc1ccc(C(=O)Cn2ccnc2)cc1-n1c(CN2CCN(C(=O)COc3ccc(Cl)cc3)CC2)nc2ccccc2c1=O — outcome as called in the assay?
inactive

Outcome logged for N.N.N.N.N.O=S(=O)([O-])S(=O)(=O)[O-].[Co+3] in this assay:
inactive

Call for entry CCn1c(-c2nonc2N)nc2ccncc21 :
inactive

Fill in: this test's call for O=C1c2ccccc2-c2c1c1c(NCCCO)nc3ccccc3c1n2Cc1ccccc1 is ___
inactive
